Biological target: GCGR (Homo sapiens, UniProt P47871)
Sequence (P47871 26-477, species assumed): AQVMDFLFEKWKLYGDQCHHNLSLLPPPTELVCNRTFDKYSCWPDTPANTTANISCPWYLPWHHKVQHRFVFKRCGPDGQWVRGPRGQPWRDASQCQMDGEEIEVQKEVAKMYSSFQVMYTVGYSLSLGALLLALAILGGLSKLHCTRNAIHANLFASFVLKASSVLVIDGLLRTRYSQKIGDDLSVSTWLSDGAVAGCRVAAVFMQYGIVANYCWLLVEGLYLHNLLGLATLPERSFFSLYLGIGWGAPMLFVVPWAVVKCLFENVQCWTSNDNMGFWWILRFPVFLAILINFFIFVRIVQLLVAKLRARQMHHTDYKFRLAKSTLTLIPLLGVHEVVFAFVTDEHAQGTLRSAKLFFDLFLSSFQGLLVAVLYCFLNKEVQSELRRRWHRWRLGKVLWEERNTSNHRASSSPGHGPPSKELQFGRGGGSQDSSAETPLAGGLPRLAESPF
Experiment: I125-glucagon binding assay (competition, GCGR membrane fractions)
Design: expressed in transfected cells; host or cells: CHO-K1
Conditions: competition with I125-glucagon 0.0625 nM; membrane fractions from GCGR overexpressed CHO-K1 cells
test readout: pIC50
Notebook: values listed as pIC50 are -log10 of the concentration (mol/L).

Example entries begin here.
| compound | pIC50 |
| --- | --- |
| CCCCC(Nc1ccc(C(=O)NCCC(=O)OCC)cc1)c1ccc(-c2nnc(-c3ccccn3)o2)cc1 (stereo not shown) | 6.24 |
| CCOC(=O)CCNC(=O)c1ccc(N[C@@H](c2ccc(-c3nc4ccccc4o3)cc2)C2CCCC2)cc1 | 6.12 |
| CC(C)C(Oc1ccc(C(=O)NCCC(=O)O)cc1)c1ccc(-c2nc3ccccc3s2)cc1 (stereo not shown) | 5.96 |

Let's switch to this compound now.
Ask: Which pIC50 is reported for this compound? CCC(C)[C@@H](Nc1ccc(C(=O)NCCC(=O)O)cc1)c1ccc(-c2nnc(C(F)(F)F)o2)cc1 (stereo partly shown)
Result: 5.78

----------
Target: glucagon receptor (GCGR) (Homo sapiens, UniProt P47871)
Sequence (P47871 26-477, species assumed): as above
Assay: Glucagon cAMP inhibition assay (Cisbio cAMP Dynamic 2 HTRF)
Details: GCGR overexpressed CHO-K1 cells or human primary hepatocytes (not specified); glucagon at EC50
Listed compounds paired with reported pIC50
Please keep in mind that pIC50 is minus log10 of the molar concentration; only the number is needed.

Solved cases (3 shown):
| compound | pIC50 |
| --- | --- |
| CCCC[C@H](Nc1ccc(C(=O)NCCC(=O)O)cc1)c1ccc(-c2nc3ccccc3o2)cc1 | 6.11 |
| CC(C)C[C@H](Nc1ccc(C(=O)NCCC(=O)O)cc1)c1ccc(-c2noc(-c3ccccc3)n2)cc1 | 6.41 |
| CCOC(=O)CCNC(=O)c1ccc(C(Nc2ccc(-c3nnc(-c4ccc(F)cc4)o3)cc2)C(C)C)cc1 (stereo not drawn) | 6.35 |

Ask: Entry O=C(O)CCNC(=O)c1ccc(NC(c2ccc(-c3noc(-c4ccccc4)n3)cc2)C2CCCC2)cc1 (stereo not drawn) : reported pIC50 = ?
Result: 6.35

Ask: Try CCOC(=O)CCNC(=O)c1ccc(N[C@@H](c2ccc(-c3nc4ccccc4o3)cc2)C(C)CC)cc1 (stereo partly drawn) next.
Result: 6.62

----------
Below: a set of entries, each annotated with reported IC50.
Target: GCGR (Homo sapiens, UniProt P47871)
Assay: I125-glucagon binding assay (competition, GCGR membrane fractions)
Design: expressed in transfected cells; host or cells: CHO-K1
Conditions: competition with I125-glucagon 0.0625 nM; membrane fractions from GCGR overexpressed CHO-K1 cells
Description: I^125-Glucagon Binding Assay The binding affinity of each compound was evaluated by a competition assay with I^125-glucagon. GCGR membrane fractions were obtained from GCGR overexpressed CHO-K1 cells as a stock of 1 mg/ml concentration. […] The residual isotope was detected by Hidex CHAMELEON V micro-beta counter and the IC50 value of each compound binding to GCGR was calculated with non-linear regression.
Give the number; nM is assumed, so skip it.

See these solved cases before continuing.
| molecule | unit text | value observed |
| --- | --- | --- |
| CCCCC(Nc1ccc(C(=O)NCCC(=O)OCC)cc1)c1ccc(-c2nnc(C(C)(C)C)o2)cc1 (stereo not shown) | nM | 4410 |
| CCC(C)C(Nc1ccc(C(=O)NCCC(=O)O)cc1)c1ccc(-c2nnc(-c3ccc(F)cc3)o2)cc1 (stereo not shown) | nM | 347 |
| CCOC(=O)CCNC(=O)c1ccc(N[C@H](c2ccc(-c3nc4ccccc4o3)cc2)C(C)C)nc1 | nM | 285 |
| CCOC(=O)CCNC(=O)c1ccc(NC(c2ccc(-c3noc(-c4cccs4)n3)cc2)C(C)C)cc1 (stereo not shown) | nM | 3060 |
| CC(C)C(Nc1ccc(-c2nnc(-c3ccccc3)o2)cc1)c1ccc(C(=O)NCCC(=O)O)cc1 (stereo not shown) | nM | 17 |

Let us examine a further case.
Ask: // query IC50 value for entry `CCOC(=O)CCNC(=O)c1ccc(N[C@H](c2ccc(-c3nc4ccccc4o3)cc2)C2CCCC2)cc1`
Result: 308
